# measured on: Kynurenine 3-monooxygenase (Mus musculus, UniProt Q91WN4)
# Sequence (Q91WN4 whole entry): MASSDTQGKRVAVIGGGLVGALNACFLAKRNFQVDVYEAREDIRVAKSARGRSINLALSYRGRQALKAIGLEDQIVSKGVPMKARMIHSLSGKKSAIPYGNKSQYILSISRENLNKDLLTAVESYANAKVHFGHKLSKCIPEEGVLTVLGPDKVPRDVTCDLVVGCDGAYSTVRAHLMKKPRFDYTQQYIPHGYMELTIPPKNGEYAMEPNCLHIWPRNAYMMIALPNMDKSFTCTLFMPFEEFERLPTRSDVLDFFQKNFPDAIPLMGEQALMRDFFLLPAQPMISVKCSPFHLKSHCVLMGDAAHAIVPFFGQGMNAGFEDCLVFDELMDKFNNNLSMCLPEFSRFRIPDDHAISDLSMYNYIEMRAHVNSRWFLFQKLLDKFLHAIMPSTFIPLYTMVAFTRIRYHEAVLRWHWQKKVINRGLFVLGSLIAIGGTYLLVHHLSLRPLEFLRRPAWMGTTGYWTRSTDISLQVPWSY
# protocol: Inhibition of C57BL/6J mouse KMO assessed as 3-hydroxykynurenine formation preincubated for 5 mins using 100 uM kynurenine as substrate by LC-MS/MS analysis
Answer each item with its documented IC50.
Note: unit µM is implicit; provide only the numeric part.

Per the records, this compound ( `COc1ccc(S(=O)(=O)Nc2nc(-c3cccc([N+](=O)[O-])c3)c(CN3CCCCC3)s2)cc1OC` ) has IC50 equal to 20

For record `COc1ccc(S(=O)(=O)Nc2nc(-c3cccc([N+](=O)[O-])c3)c(CN)s2)cc1OC` the listed IC50 is 27

Lab note: `COc1ccc(S(=O)(=O)Nc2nc(-c3cccc([N+](=O)[O-])c3)cs2)cc1OC` gave IC50 of 0.09

Kindly note the recorded IC50 for `COc1ccc(S(=O)(=O)Nc2nc(-c3cccc([N+](=O)[O-])c3)c(CO)s2)cc1OC` , which is 22

###

# protocol: Volume of distribution at steady state in C57BL/6N mouse at 5 mg/kg, iv administered as single dose by LC-MS/MS analysis
# Type: ADME, organism-based
# Design: dose 5 mg/kg, route intravenous
# assay context: in vivo, read-out: Vdss
test readout: Vd (L/kg)
# output: bare number, implied unit L/kg

The compound listed as `COc1ccc(S(=O)(=O)Nc2nc(-c3cccc([N+](=O)[O-])c3)cs2)cc1OC` shows Vd equal to 0.15

###

# protocol: Metabolic stability in mouse plasma assessed as half life at 5 uM after 10 to 1440 mins by LC-MS/MS analysis
# Format: ADME, cell-free
Hi there, I'd appreciate the recorded half-life at 5 µM for every entry that follows.

Lab note: `COc1ccc(S(=O)(=O)Nc2nc(-c3cccc([N+](=O)[O-])c3)cs2)cc1OC` gave half-life at 5 µM of > 24 h

So, `COc1ccc(S(=O)(=O)Nc2nc(-c3cccc([N+](=O)[O-])c3)c(CN3CCCCC3)s2)cc1OC` ? Its half-life at 5 µM was > 24 h

###

# protocol: Plasma protein binding in human at 10 uM for 6 hrs by LC-MS/MS analysis
# Format: ADME, cell-free
# assay context: read-out: PPB
test readout: fraction unbound at 6 h, 10 µM

Record summary for `COc1ccc(S(=O)(=O)Nc2nc(-c3cccc([N+](=O)[O-])c3)cs2)cc1OC` : reported fraction unbound at 6 h, 10 µM = < 0.01

###

# protocol: Cmax in C57BL/6N mouse treated with JM6 (containing <0.4% Ro-61-8048) at 9 mg/kg, po and Ro-61-8048 at 1 mg/kg, po drugs administered via gavage by LC-MS/MS analysis
# Format: ADME, organism-based
# Parameters: dose 9 mg/kg, route oral
# assay context: in vivo
Give measured Cmax for each item. Keep answers brief.
Just the number please, in µM, no unit attached.

Recorded Cmax (compound `COc1ccc(S(=O)(=O)Nc2nc(-c3cccc([N+](=O)[O-])c3)cs2)cc1OC` ): 17

Summary for this compound, `COc1ccc(S(=O)(=O)Nc2nc(-c3cccc([N+](=O)[O-])c3)c(CN3CCCCC3)s2)cc1OC` : Cmax is 1

###

# Tested on: MDR1
# protocol: Apparent permeability from basolateral to apical side in MDCK2-MDR1 cells at 10 uM after 1 hr by LC-MS/MS analysis
# Assay type: ADME, cell-based, Canis lupus familiaris, MDCK-II
# assay context: dog, MDCK-MDR1
test readout: Papp B→A at 1 h, 10 µM

The molecule `COc1ccc(S(=O)(=O)Nc2nc(-c3cccc([N+](=O)[O-])c3)c(CN3CCCCC3)s2)cc1OC` showed Papp B→A at 1 h, 10 µM equal to 43 ×10⁻⁶ cm/s

Papp B→A at 1 h, 10 µM recorded for this molecule, `COc1ccc(S(=O)(=O)Nc2nc(-c3cccc([N+](=O)[O-])c3)cs2)cc1OC` , is 33 ×10⁻⁶ cm/s

###

Give measured hepatic extraction ratio at 1 µM for each item. Keep answers brief.
# protocol: Hepatic extraction ratio in human Hepatocyte at 1 uM after 10 to 90 mins by LC-MS/MS analysis
# Format: ADME, cell-based
# assay context: hepatocytes, read-out: ERH

Query `COc1ccc(S(=O)(=O)Nc2nc(-c3cccc([N+](=O)[O-])c3)c(CN3CCCCC3)s2)cc1OC` yields hepatic extraction ratio at 1 µM of 0.67

Recorded result, `COc1ccc(S(=O)(=O)Nc2nc(-c3cccc([N+](=O)[O-])c3)cs2)cc1OC` , hepatic extraction ratio at 1 µM: 0.8

###

# protocol: AUC(infinity) in C57BL/6N mouse at 5 mg/kg, iv administered as single dose containing <0.4% Ro-61-8048 by LC-MS/MS analysis
# Type: ADME, organism-based
# Parameters: time infinity, dose 5 mg/kg, route intravenous
# assay context: plasma
test readout: AUC(0-inf)
Your answer should be a number followed by the unit of measure.

Given item `COc1ccc(S(=O)(=O)Nc2nc(-c3cccc([N+](=O)[O-])c3)c(CN3CCCCC3)s2)cc1OC` , the value recorded as its AUC(0-inf) is 5.2 µM·h

###

# Test system: MDR1
# protocol: Apparent permeability from apical to basolateral side in MDCK2-MDR1 cells at 10 uM after 1 hr by LC-MS/MS analysis
# Type: ADME, cell-based, Canis lupus familiaris, MDCK-II
# assay context: dog, MDCK-MDR1
test readout: Papp A→B at 1 h, 10 µM (×10⁻⁶ cm/s)
API: value field is a number in ×10⁻⁶ cm/s; no unit string.

The compound identified as `COc1ccc(S(=O)(=O)Nc2nc(-c3cccc([N+](=O)[O-])c3)cs2)cc1OC` registered its Papp A→B at 1 h, 10 µM at 10

Note to self: Papp A→B at 1 h, 10 µM recorded for `COc1ccc(S(=O)(=O)Nc2nc(-c3cccc([N+](=O)[O-])c3)c(CN3CCCCC3)s2)cc1OC` was 0.72

###

# protocol: AUClast in C57BL/6N mouse treated with JM6 (containing <0.4% Ro-61-8048) at 9 mg/kg, po and Ro-61-8048 at 1 mg/kg, po drugs administered via gavage by LC-MS/MS analysis
# Format: ADME, organism-based
# Design: dose 9 mg/kg, time 0 - last, route oral
# assay context: plasma
test readout: AUC(0-t)
Please make sure the unit comes right after the number.

AUC(0-t) measured on `COc1ccc(S(=O)(=O)Nc2nc(-c3cccc([N+](=O)[O-])c3)c(CN3CCCCC3)s2)cc1OC` = 1.1 µM·h

The compound listed as `COc1ccc(S(=O)(=O)Nc2nc(-c3cccc([N+](=O)[O-])c3)cs2)cc1OC` has a reported AUC(0-t) of 110 µM·h

###

# protocol: AUClast in C57BL/6N mouse treated with JM6 (containing <0.4% Ro-61-8048) at 10 mg/kg, po and Ro-61-8048 at 0.05 mg/kg, po drugs administered via gavage by LC-MS/MS analysis
# Type: ADME, organism-based
# Parameters: dose 10 mg/kg, time 0 - last, route oral
# assay context: plasma
test readout: AUC(0-t)
Give the figure together with its unit, number first.

Value of measured AUC(0-t) for the entry `COc1ccc(S(=O)(=O)Nc2nc(-c3cccc([N+](=O)[O-])c3)c(CN3CCCCC3)s2)cc1OC` : 1.3 µM·h

Query `COc1ccc(S(=O)(=O)Nc2nc(-c3cccc([N+](=O)[O-])c3)cs2)cc1OC` yields AUC(0-t) of 4.9 µM·h

###

# protocol: Cmax in mouse at 25 mg/kg/day, po
# Assay type: ADME, organism-based
# Set-up: dose 25 mg/kg/day, route oral
# assay context: in vivo
test readout: Cmax (nM)
State the answer as a number, implicitly in nM.

Cmax for `COc1ccc(S(=O)(=O)Nc2nc(-c3cccc([N+](=O)[O-])c3)cs2)cc1OC` is 280

###

# protocol: Oral bioavailability in C57BL/6N mouse treated with JM6 (containing <0.4% Ro-61-8048) at 10 mg/kg and Ro-61-8048 at 0.05 mg/kg drugs administered via gavage by LC-MS/MS analysis
# Format: ADME, organism-based
# assay context: in vivo
For each entry below, report its bioavailability value.
Please respond with the number in % and leave the unit unwritten.

So, `COc1ccc(S(=O)(=O)Nc2nc(-c3cccc([N+](=O)[O-])c3)cs2)cc1OC` ? Its bioavailability was 80

Reported bioavailability for `COc1ccc(S(=O)(=O)Nc2nc(-c3cccc([N+](=O)[O-])c3)c(CN3CCCCC3)s2)cc1OC` was 13

###

# protocol: Half life in C57BL/6N mouse at 5 mg/kg, iv administered as single dose containing <0.4% Ro-61-8048 by LC-MS/MS analysis
# Assay type: ADME, organism-based
# Design: dose 5 mg/kg, route intravenous
# assay context: in vivo
test readout: half-life (min)
Give your result in min as a bare value.

The compound identified as `COc1ccc(S(=O)(=O)Nc2nc(-c3cccc([N+](=O)[O-])c3)c(CN3CCCCC3)s2)cc1OC` registered its half-life at 43.2

The values you see were collected from ChEMBL document CHEMBL3526063.
